Recorded TGI by entry
Test system: EKVX NSCLC
Assay: NCI tumour cell line growth inhibition, 48 h

# annotated cases, reported TGI shown
INPUT: Query TGI on EKVX NSCLC for `CSc1nnc(SCc2nn3c(=O)cc(C)nc3s2)s1`
OUTPUT: > 100 µM

INPUT: Query TGI on EKVX NSCLC for `COC(=O)CCC(=O)NC1=C(Nc2ccccc2)C(=O)c2ccccc2C1=O`
OUTPUT: 34.2 µM

INPUT: Query TGI on EKVX NSCLC for CC(C)C1(NC(=O)C2CC3c4cccc5[nH]cc(c45)CC3N(C)C2)OC2(O)C3CCCN3C(=O)C(Cc3ccccc3)N2C1=O (centres undefined)
OUTPUT: > 100 µM

INPUT: Query TGI on EKVX NSCLC for `Oc1ccc(Cl)cc1-c1cc(-c2ccccc2)nc(=S)[nH]1`
OUTPUT: > 100 µM

Further cases:
INPUT: Query TGI on EKVX NSCLC for `Cc1cc2c(c(C(=O)NCC(=O)O)c1)Oc1c(cc(C)cc1C(=O)NCC(=O)O)S2`
OUTPUT: > 100 µM

INPUT: Query TGI on EKVX NSCLC for `CCN1CCN(c2cc(C(=O)Nc3cccc(Nc4ccc5c(OC)cccc5n4)c3)cc(C(F)(F)F)c2)CC1`
OUTPUT: 9.46 µM

INPUT: Query TGI on EKVX NSCLC for `O=C(O)COc1ccc(OCC(=O)O)cc1`
OUTPUT: 74.4 µM

INPUT: Query TGI on EKVX NSCLC for COC(=O)C(=O)C(C(=O)C(=O)Nc1ccccc1[N+](=O)[O-])c1nc2ccc([N+](=O)[O-])cc2[nH]c1=O (centres undefined)
OUTPUT: > 100 µM

INPUT: Query TGI on EKVX NSCLC for CCCCC#Cc1c(I)n(C2OC(CO[Si](C)(C)C(C)(C)C)C3OC(C)(C)OC32)c(=O)n(C(=O)c2ccccc2)c1=O (centres undefined)
OUTPUT: 38.9 µM
